Origin of the recorded values: paper PMC4868737

Subject Of Test: AR wild-type (Homo sapiens)
Sequence (P10275 1-920): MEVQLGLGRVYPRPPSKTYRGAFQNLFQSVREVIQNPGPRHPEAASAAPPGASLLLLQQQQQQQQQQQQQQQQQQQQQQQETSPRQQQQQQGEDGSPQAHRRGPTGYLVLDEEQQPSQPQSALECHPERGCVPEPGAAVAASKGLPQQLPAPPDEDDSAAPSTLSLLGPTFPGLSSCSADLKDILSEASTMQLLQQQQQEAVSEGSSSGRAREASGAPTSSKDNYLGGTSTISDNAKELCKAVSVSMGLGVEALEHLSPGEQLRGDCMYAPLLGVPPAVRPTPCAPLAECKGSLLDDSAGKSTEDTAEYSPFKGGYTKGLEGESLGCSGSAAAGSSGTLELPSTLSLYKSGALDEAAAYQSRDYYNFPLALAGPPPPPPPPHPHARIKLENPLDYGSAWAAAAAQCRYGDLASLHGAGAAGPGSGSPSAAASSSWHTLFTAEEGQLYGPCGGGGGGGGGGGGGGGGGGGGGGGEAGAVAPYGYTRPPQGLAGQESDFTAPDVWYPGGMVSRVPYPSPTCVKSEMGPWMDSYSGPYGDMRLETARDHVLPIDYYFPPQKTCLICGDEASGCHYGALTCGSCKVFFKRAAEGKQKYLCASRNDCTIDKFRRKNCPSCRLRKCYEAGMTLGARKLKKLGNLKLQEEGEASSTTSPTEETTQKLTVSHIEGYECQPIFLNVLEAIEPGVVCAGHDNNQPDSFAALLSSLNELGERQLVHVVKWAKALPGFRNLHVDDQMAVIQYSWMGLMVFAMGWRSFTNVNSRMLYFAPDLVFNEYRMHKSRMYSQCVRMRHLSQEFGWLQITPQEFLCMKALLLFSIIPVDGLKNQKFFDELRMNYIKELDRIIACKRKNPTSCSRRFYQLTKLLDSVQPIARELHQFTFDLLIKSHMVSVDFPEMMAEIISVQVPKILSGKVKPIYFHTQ
Experiment: cell-based
Stated Conditions: IC50 (antagonistic activity), R1881 1 nM
Endpoint Label: pIC50
Please report pIC50 as the negative decimal logarithm of the molar concentration, giving only the number.

QUERY: Lookup: pIC50 / AR wild-type (Homo sapiens) / CC(C)(O)COc1ccc(CN2C(=S)N(c3ccc(C#N)c(C(F)(F)F)c3)C(=O)C2(C)C)cn1
RESULT: 6.59

====

Subject Of Test: AR M895T (Homo sapiens, UniProt P10275, M895T/M896T)
Experiment: cell-based
Stated Conditions: IC50 (antagonistic activity), R1881 10 nM
Endpoint Label: IC50 (nM)
Dear colleague, please return just the value in nM, with no unit written.

QUERY: Fill blank: measured IC50 of the compound CC(C)(O)COc1ccc(CN2C(=S)N(c3ccc(C#N)c(C(F)(F)F)c3)C(=O)C2(C)C)cn1 is ____.
RESULT: 220

====

Subject Of Test: AR E709Y (Homo sapiens, UniProt P10275, E710Y)
Experiment: cell-based
Stated Conditions: IC50 (antagonistic activity), R1881 0.1 nM
Endpoint Label: IC50 (nM)
# value in nM; strip the unit string

QUERY: Quick check: IC50 of CC(C)(O)COc1ccc(CN2C(=S)N(c3ccc(C#N)c(C(F)(F)F)c3)C(=O)C2(C)C)cn1 ?
RESULT: 30

====

Subject Of Test: AR F876L (Homo sapiens, UniProt P10275, F877L)
Experiment: cell-based
Stated Conditions: IC50 (antagonistic activity), R1881 0.1 nM
Endpoint Label: pIC50
In simple prose, pIC50 is minus the logarithm base ten of a concentration in moles per litre.

QUERY: Param item = CC(C)(O)COc1ccc(CN2C(=S)N(c3ccc(C#N)c(C(F)(F)F)c3)C(=O)C2(C)C)cn1 ; retrieve measured pIC50.
RESULT: 6.97
